# Target Entity: 2-hydroxyacylsphingosine 1-beta-galactosyltransferase (Mus musculus, UniProt Q64676)
# Sequence (Q64676 whole entry): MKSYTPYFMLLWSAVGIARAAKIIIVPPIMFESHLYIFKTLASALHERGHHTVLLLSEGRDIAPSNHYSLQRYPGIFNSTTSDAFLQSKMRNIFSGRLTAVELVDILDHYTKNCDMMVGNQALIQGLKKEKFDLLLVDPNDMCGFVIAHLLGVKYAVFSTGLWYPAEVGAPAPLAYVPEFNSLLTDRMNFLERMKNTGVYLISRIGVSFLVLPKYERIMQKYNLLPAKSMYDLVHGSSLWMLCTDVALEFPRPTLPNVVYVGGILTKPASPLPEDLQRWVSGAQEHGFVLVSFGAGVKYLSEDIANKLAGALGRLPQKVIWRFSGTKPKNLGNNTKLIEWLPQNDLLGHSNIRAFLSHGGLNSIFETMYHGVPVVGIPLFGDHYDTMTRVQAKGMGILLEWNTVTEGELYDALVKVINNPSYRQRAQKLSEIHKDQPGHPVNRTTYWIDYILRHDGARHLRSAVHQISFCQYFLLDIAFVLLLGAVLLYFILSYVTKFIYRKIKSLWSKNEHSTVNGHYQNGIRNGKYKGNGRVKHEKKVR
# Measurement Notes: Inhibition of mouse UGT8 assessed as redcution in GalCer accumulation
Endpoint: pIC50
Just so you know, pIC50 here is -log10 of the concentration in molar units; reply with that number alone.

Query string: Query pIC50 for CNC(=O)c1csc2c(C(F)(F)F)cc(N3CCC(OC(=O)N[C@@H](C)COC(F)(F)F)CC3)nc12
Result string: 9.70

###

# Measurement Notes: Volume of distribution at steady state in C57BL/6 mouse at 1 mg/kg, iv
# Format: ADME, organism-based
# Run Parameters: in vivo, read-out: Vdss
Endpoint: Vd (L/kg)
Answer in L/kg, number only, no unit symbol.

Query string: Query Vd for CNC(=O)c1csc2c(C(F)(F)F)cc(N3CCC(OC(=O)N[C@@H](C)COC(F)(F)F)CC3)nc12
Result string: 1.64

###

# Target Entity: UniProt:Q16880
# Measurement Notes: Inhibition of UGT8 in human OE19 cells assessed as redcution in SFT accumulation measured after 72 hrs by LC-MS/MS analysis
# Assay type: cell-based
Endpoint: pIC50
Just so you know, pIC50 here is -log10 of the concentration in molar units; reply with that number alone.

Recorded pIC50, per entry:
Compound | pIC50
CNC(=O)c1csc2c(C(F)(F)F)cc(N3CC(NC(=O)OCC4CC4)C3)nc12 | 7.32
CNC(=O)c1csc2c(C(F)(F)F)cc(N3CCN(C(C)C(=O)NC4CC4)CC3)nc12 (centres undefined) | 6.77
CC(C)NC(=O)CN1CCN(c2cc(C(F)(F)F)c3scc(C(=O)N4CCC4)c3n2)CC1 | 6.19
CNC(=O)c1csc2c(C(F)(F)F)cc(N3CCC(OC(=O)N4CC(OC(F)(F)F)C4)CC3)nc12 | 8.77
CNC(=O)c1csc2c(C(F)(F)F)cc(N3CCC(OC(=O)NCCOC(F)(F)F)CC3)nc12 | 9.40

Query string: Query pIC50 for CNC(=O)c1csc2c(C(F)(F)F)cc(N3CCC(OC(=O)NC(C)C)CC3)nc12
Result string: 8.70

Query string: Query pIC50 for CNC(=O)c1csc2c(C(F)(F)F)cc(N3CCN(C(=O)COC(C)C)CC3)nc12
Result string: 6.18

Query string: Query pIC50 for CNC(=O)c1csc2c(C(F)(F)F)cc(N3CCC(NC(=O)OCC4CC4)CC3)nc12
Result string: 7.74

Query string: Query pIC50 for CNC(=O)c1csc2c(C(F)(F)F)cc(N3CCC(OC(=O)N4CC(CN(C)C)C4)CC3)nc12
Result string: 6.01

###

# Measurement Notes: Clearance in Beagle dog at 1 mg/kg, iv
# Assay type: ADME, organism-based, Canis lupus familiaris
# Run Parameters: in vivo
Endpoint: clearance (L/h/kg)
Answer in L/h/kg, number only, no unit symbol.

Query string: Query clearance for CNC(=O)c1csc2c(C(F)(F)F)cc(N3CCC(OC(=O)N[C@@H](C)COC(F)(F)F)CC3)nc12
Result string: 0.379

###

# Measurement Notes: Intrinsic clearance in human liver microsomes
# Assay type: ADME, Microsome
# Run Parameters: read-out: CLH
Below, each entry is listed alongside its reported microsomal CLint.
Answer in µL/min/mg, number only, no unit symbol.

Molecule | microsomal CLint, µL/min/mg
CNC(=O)c1csc2c(C(F)(F)F)cc(N3CCN(C(C)C(=O)NC4CC4)CC3)nc12 (centres undefined) | 34
CNC(=O)c1csc2c(C(F)(F)F)cc(N3CCC(OC(=O)NCC4CC4)CC3)nc12 | 59
CNC(=O)c1csc2c(C(F)(F)F)cc(N3CCC(OC(=O)NC(C)C)CC3)nc12 | 46
CNC(=O)c1csc2c(C(F)(F)F)cc(N3CCN(CC(O)COC(C)(C)C)CC3)nc12 (centres undefined) | 51
CNC(=O)c1csc2c(C(F)(F)F)cc(N3CCN(CC(=O)C(C)(C)C)CC3)nc12 | 5

Query string: Query microsomal CLint for CCC(=O)c1csc2c(C(F)(F)F)cc(N3CCN(CC(=O)NC(C)C)CC3)nc12
Result string: 36

Query string: Query microsomal CLint for CC(C)NC(=O)CN1CCN(c2cc(C(F)(F)F)c3scc(C(=O)N4CCC4)c3n2)CC1
Result string: 27

Query string: Query microsomal CLint for CNC(=O)c1csc2c(C(F)(F)F)cc(N3CCC(OC(=O)N[C@@H](C)COC(F)(F)F)CC3)nc12
Result string: 73

Query string: Query microsomal CLint for CNC(=O)c1csc2c(C(F)(F)F)cc(N3CCC(OC(=O)N[C@@H](C)C4CC4)CC3)nc12
Result string: 70

###

# Measurement Notes: Oral bioavailability in C57BL/6 mouse at 3 mg/kg
# Type: ADME, organism-based
# Run Parameters: in vivo
Endpoint: bioavailability (%)
Answer in %, number only, no unit symbol.

Query string: Query bioavailability for CNC(=O)c1csc2c(C(F)(F)F)cc(N3CCC(OC(=O)N[C@@H](C)COC(F)(F)F)CC3)nc12
Result string: 34

###

# Measurement Notes: Intrinsic clearance in human liver microsomes
# Type: ADME, Microsome
# Run Parameters: read-out: CLH
Endpoint: microsomal CLint (µL/min/mg)
Answer in µL/min/mg, number only, no unit symbol.

Recorded microsomal CLint, per entry:
Smiles Data | Measure Unit | microsomal CLint
CNC(=O)c1csc2c(C(F)(F)F)cc(N3CCC(OC(=O)N4CC(OC(F)(F)F)C4)CC3)nc12 | µL/min/mg | 41
CNC(=O)c1csc2c(C(F)(F)F)cc(N3CCN(CCOC(C)C)CC3)nc12 | µL/min/mg | 96

Consider now this further compound.
Query string: Query microsomal CLint for CNC(=O)c1csc2c(C(F)(F)F)cc(N3CCN(C(=O)COC(C)C)CC3)nc12
Result string: 42

###

# Measurement Notes: Oral bioavailability in Beagle dog at 3 mg/kg
# Format: ADME, organism-based, Canis lupus familiaris
# Run Parameters: in vivo
Endpoint: bioavailability (%)
Answer in %, number only, no unit symbol.

Query string: Query bioavailability for CNC(=O)c1csc2c(C(F)(F)F)cc(N3CCC(OC(=O)N[C@@H](C)COC(F)(F)F)CC3)nc12
Result string: 52

###

# Target Entity: 2-hydroxyacylsphingosine 1-beta-galactosyltransferase (Homo sapiens, UniProt Q16880)
# Sequence (Q16880 whole entry): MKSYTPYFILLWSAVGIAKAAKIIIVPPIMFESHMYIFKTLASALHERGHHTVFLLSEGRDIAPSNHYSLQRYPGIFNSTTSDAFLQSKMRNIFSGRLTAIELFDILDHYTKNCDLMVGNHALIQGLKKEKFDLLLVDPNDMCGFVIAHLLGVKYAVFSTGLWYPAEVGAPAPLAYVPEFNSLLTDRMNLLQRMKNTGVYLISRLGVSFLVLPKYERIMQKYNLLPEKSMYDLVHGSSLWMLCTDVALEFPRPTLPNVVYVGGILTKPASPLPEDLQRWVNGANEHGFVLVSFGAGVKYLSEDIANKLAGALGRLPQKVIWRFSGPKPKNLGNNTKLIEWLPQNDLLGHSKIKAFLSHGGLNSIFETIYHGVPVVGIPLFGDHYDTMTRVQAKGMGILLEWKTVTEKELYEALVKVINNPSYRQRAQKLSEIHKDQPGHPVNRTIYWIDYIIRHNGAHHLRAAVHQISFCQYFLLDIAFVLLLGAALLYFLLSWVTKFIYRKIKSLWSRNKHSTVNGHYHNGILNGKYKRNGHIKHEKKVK
# Measurement Notes: Inhibition of UGT8 in human OE19 cells assessed as redcution in GalCer accumulation measured after 72 hrs by LC-MS/MS analysis
# Type: cell-based
Below, each entry is listed alongside its reported IC50.
Answer in nM, number only, no unit symbol.

Recorded IC50, per entry:
Compound | IC50, nM
CNC(=O)c1csc2c(C(F)(F)F)cc(N3CCC(OC(=O)NCC4CC4)CC3)nc12 | 3
CNC(=O)c1csc2c(C(F)(F)F)cc(N3CCC(NC(=O)OCC4CC4)CC3)nc12 | 37
CNC(=O)c1csc2c(C(F)(F)F)cc(N3CCC(OC(=O)N[C@@H](C)C4CC4)CC3)nc12 | 1.1
CNC(=O)c1csc2c(C(F)(F)F)cc(N3CCN(CC(=O)NC(C)C)CC3)nc12 | 90
CNC(=O)c1csc2c(C(F)(F)F)cc(N3CCN(C(=O)COC(C)C)CC3)nc12 | 450

Query string: Query IC50 for CNC(=O)c1csc2c(C(F)(F)F)cc(N3CCN(C(C)C(=O)NC4CC4)CC3)nc12 (centres undefined)
Result string: 360

Query string: Query IC50 for CNC(=O)c1csc2c(C(F)(F)F)cc(N3CCN(CC(O)COC(C)(C)C)CC3)nc12 (centres undefined)
Result string: 350

Query string: Query IC50 for CNC(=O)c1csc2c(C(F)(F)F)cc(N3CCN(CCOC(C)C)CC3)nc12
Result string: 200

Query string: Query IC50 for CNC(=O)c1csc2c(C(F)(F)F)cc(N3CCN(CC(=O)C(C)(C)C)CC3)nc12
Result string: 1400
